- assayed-system: b-Raf (Homo sapiens, UniProt P15056, V600E)
- Construct: endogenous in cells; host or cells: A2058 human melanoma cells
- Sequence (P15056 whole entry V600E): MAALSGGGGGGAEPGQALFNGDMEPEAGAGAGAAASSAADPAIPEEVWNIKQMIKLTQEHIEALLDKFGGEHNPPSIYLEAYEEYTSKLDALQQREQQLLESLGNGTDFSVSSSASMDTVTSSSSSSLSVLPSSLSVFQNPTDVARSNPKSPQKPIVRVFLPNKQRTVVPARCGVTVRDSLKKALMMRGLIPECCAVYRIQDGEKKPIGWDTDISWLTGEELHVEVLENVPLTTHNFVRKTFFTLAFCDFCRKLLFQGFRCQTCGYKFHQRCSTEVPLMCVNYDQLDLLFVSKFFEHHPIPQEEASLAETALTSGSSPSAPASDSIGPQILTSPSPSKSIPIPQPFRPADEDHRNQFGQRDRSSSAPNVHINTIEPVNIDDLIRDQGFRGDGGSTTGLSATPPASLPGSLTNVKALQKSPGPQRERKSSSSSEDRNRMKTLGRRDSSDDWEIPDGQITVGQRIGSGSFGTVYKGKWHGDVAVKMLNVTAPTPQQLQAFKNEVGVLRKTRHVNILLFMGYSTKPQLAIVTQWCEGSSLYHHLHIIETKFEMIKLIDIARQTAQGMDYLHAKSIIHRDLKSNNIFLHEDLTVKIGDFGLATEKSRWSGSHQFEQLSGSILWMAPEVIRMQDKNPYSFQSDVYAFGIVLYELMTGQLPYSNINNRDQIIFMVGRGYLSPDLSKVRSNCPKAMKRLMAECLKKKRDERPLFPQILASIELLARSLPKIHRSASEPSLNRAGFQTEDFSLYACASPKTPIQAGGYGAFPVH
- assay-explanation: Raf cellular assay (phospho-Mek1/2 ELISA in A2058 cells)
- Assay type: cell-based
- condition-description: Table 3; human melanoma A2058 cells (b-Raf mutation), Mek1/2 Ser217/221 phosphorylation, 1 hour incubation; read-out: pMEK IC50
observation-type: IC50 (µM)

As a guide, the following entries are already answered.
>>> print(df.to_string())
                                   molecule  scale_unit  reported
0  C[C@H](O)CNc1nccc(-c2cn(C3CC(F)(F)C3)nc2-c2cnc3[nH]cc(Cl)c3c2)n1 [Example B-17]          µM    0.0619
1  CC(C)(C)n1cc(-c2ccnc(NCCC#N)n2)c(-c2cnc3[nH]ccc3c2)n1 [Example B-74]          µM   0.00533
2  Nc1nccc(-c2cn(C(F)F)nc2-c2cnc3[nH]cc(Cl)c3c2)n1 [Example B-43]          µM    0.0441
3  CC(C)(CO)n1cc(-c2ccnc(NCC(F)F)n2)c(-c2cnc3[nH]ccc3c2)n1 [Example B-48]          µM    0.0303
4  CC(C)n1cc(-c2ccncn2)c(-c2cnc3[nH]cc(Cl)c3c2)n1 [Example F-1]          µM    0.0499

[1] C[C@H](O)CNc1nccc(-c2cn([C@H]3C[C@H](F)C3)nc2-c2cnc3[nH]cc(Cl)c3c2)n1 [Example B-86]
[2] N#CCCNc1nccc(-c2cn(CC(F)F)nc2-c2cnc3cc[nH]c3c2)n1 [Example B-36]
[3] COc1cc(-c2nn(C(F)F)cc2-c2ccnc(NC[C@H](C)O)n2)cnc1N [Example B-41]
q: Kindly order the items shown according to IC50, from the highest value down. List labels; respect the requested ordering.
a: 2, 3, 1
